# experiment_notes: Selectivity index, ratio of IC50 for HEK293T cells to IC50 for erythrocytic stage of Plasmodium falciparum 3D7
# Type: toxicity, cell-based
# condition_info: human, read-out: Ratio IC50
The following molecules are listed with their measured selectivity ratio values.
Would you mind answering with just the numeric figure?

Observe how each entry below is paired with its result.
Cn1cc(CN[C@H]2CC[C@@H](Nc3ncc(C(=O)NO)cn3)CC2)c2ccc(F)cc21 ... 501
O=C(NO)c1cnc(N[C@H]2CC[C@@H](NCc3ccc4ccccc4c3)CC2)nc1 ... 116
O=C(NO)c1cnc(N[C@H]2CC[C@@H](NCc3ccc4ccccc4n3)CC2)nc1 ... 278
O=C(NO)c1cnc(N[C@H]2CC[C@@H](NCc3coc4ccccc34)CC2)nc1 ... 61

The record that follows has no selectivity ratio shown yet.
Request: Bench note: what selectivity ratio did `O=C(NO)c1cnc(N[C@H]2CC[C@@H](NCc3c4ccccc4cc4ccccc34)CC2)nc1` show?
Result: 114

----------
# experiment_notes: Selectivity index, ratio of IC50 for HEK293T cells to IC50 for erythrocytic stage of Plasmodium falciparum 3D7
# Format: toxicity, cell-based
# condition_info: human, read-out: Ratio IC50
The following molecules are listed with their measured selectivity ratio values.
Would you mind answering with just the numeric figure?

Observe how each entry below is paired with its result.
O=C(NO)c1cnc(N[C@H]2CC[C@@H](NCc3cccnc3)CC2)nc1 ... 37
Cn1cc(CN[C@H]2CC[C@@H](Nc3ncc(C(=O)NO)cn3)CC2)c2ccc(Br)cc21 ... 217
Cn1cc(CN[C@H]2CC[C@@H](Nc3ncc(C(=O)NO)cn3)CC2)c2ccc(Cl)cc21 ... 213
Cn1cc(CN[C@H]2CC[C@@H](Nc3ncc(C(=O)NO)cn3)CC2)c2ccccc21 ... 399

The record that follows has no selectivity ratio shown yet.
Request: Bench note: what selectivity ratio did `O=C(NO)c1cnc(N[C@H]2CC[C@@H](NCc3cnc4ccccc4c3)CC2)nc1` show?
Result: 161

----------
# experiment_notes: Selectivity index, ratio of IC50 for human HepG2 cells to IC50 for erythrocytic stage of Plasmodium falciparum 3D7
# Assay type: toxicity, cell-based
# condition_info: read-out: Ratio IC50
assay_metric: selectivity ratio

Observe how each entry below is paired with its result.
Cn1cc(CN[C@H]2CC[C@@H](Nc3ncc(C(=O)NO)cn3)CC2)c2ncccc21 ... > 214
Cn1c(CN[C@H]2CC[C@@H](Nc3ncc(C(=O)NO)cn3)CC2)nc2ccccc21 ... > 510

Request: Bench note: what selectivity ratio did `Cn1cc(CN[C@H]2CC[C@@H](Nc3ncc(C(=O)NO)cn3)CC2)c2cccnc21` show?
Result: > 209

----------
# Test system: Plasmodium falciparum
# experiment_notes: microbe, parasite or virus in culture
# condition_info: Dd2, 72 h
# Description: Antimalarial activity against erythrocytic stage of chloroquine-resistant Plasmodium falciparum Dd2 assessed as inhibition of growth incubated for 72 hrs by SYBR green I based assay
The following molecules are listed with their measured IC50 values.
# unit: nM | format: bare number

O=C(NO)c1cnc(N[C@H]2CC[C@@H](NCc3ccc4ccc5cccc6ccc3c4c56)CC2)nc1 ... 28.8
O=C(NO)c1cnc(N[C@H]2CC[C@@H](NCc3ccc(-c4ccccc4)cc3)CC2)nc1 ... 179
O=C(NO)c1cnc(N[C@H]2CC[C@@H](NCc3ccnc4ccccc34)CC2)nc1 ... 54
O=C(NO)c1cnc(N[C@H]2CC[C@@H](NCc3ccoc3)CC2)nc1 ... 106
Cn1cc(CN[C@H]2CC[C@@H](Nc3ncc(C(=O)NO)cn3)CC2)c2ccc(F)cc21 ... 14.5
O=C(NO)c1cnc(N[C@H]2CC[C@@H](NCc3csc4ccccc34)CC2)nc1 ... 34.8
O=C(NO)c1cnc(N[C@H]2CC[C@@H](NCc3coc4ccccc34)CC2)nc1 ... 35.5
O=C(NO)c1cnc(N[C@H]2CC[C@@H](NCC3CCCC3)CC2)nc1 ... 70.1

The record that follows has no IC50 shown yet.
Request: Bench note: what IC50 did `O=C(NO)c1cnc(N[C@H]2CC[C@@H](NCc3ccc4ccccc4c3)CC2)nc1` show?
Result: 15.4

----------
# experiment_notes: Selectivity index, ratio of IC50 for HEK293T cells to IC50 for erythrocytic stage of Plasmodium falciparum 3D7
# Assay type: toxicity, cell-based
# condition_info: human, read-out: Ratio IC50
assay_metric: selectivity ratio
Would you mind answering with just the numeric figure?

Observe how each entry below is paired with its result.
O=C(NO)c1cnc(N[C@H]2CC[C@@H](NCc3ccc4ccc5cccc6ccc3c4c56)CC2)nc1 ... 87
O=C(NO)c1cnc(N[C@H]2CC[C@@H](NCC3CCCC3)CC2)nc1 ... 59

The record that follows has no selectivity ratio shown yet.
Request: Bench note: what selectivity ratio did `O=C(NO)c1cnc(N[C@H]2CC[C@@H](NCc3ccc4ncccc4c3)CC2)nc1` show?
Result: 157

----------
# experiment_notes: Cytotoxicity against human HepG2 cells assessed as inhibition of cell growth incubated for 72 hrs by CCK8 assay
# Format: toxicity, cell-based
The following compounds are listed with their measured IC50 at 72 h values.
# unit: µM | format: bare number

Observe how each entry below is paired with its result.
O=C(NO)c1cnc(N[C@H]2CC[C@@H](NCC3CCCC3)CC2)nc1 ... 5.49
O=C(NO)c1cnc(N[C@H]2CC[C@@H](NCc3cc4ccccc4s3)CC2)nc1 ... 1.44
O=C(NO)c1cnc(N[C@H]2CC[C@@H](NCc3csc4ccccc34)CC2)nc1 ... 1.36
O=C(NO)c1cnc(N[C@H]2CC[C@@H](NCc3ccnc4ccccc34)CC2)nc1 ... 7.12

Request: Bench note: what IC50 at 72 h did `O=C(NO)c1cnc(N[C@H]2CC[C@@H](NCc3ccc(-c4ccccc4)cc3)CC2)nc1` show?
Result: 2

----------
# experiment_notes: Selectivity index, ratio of IC50 for human HepG2 cells to IC50 for erythrocytic stage of Plasmodium falciparum 3D7
# Assay type: toxicity, cell-based
# condition_info: read-out: Ratio IC50
assay_metric: selectivity ratio

Observe how each entry below is paired with its result.
Cn1cc(CN[C@H]2CC[C@@H](Nc3ncc(C(=O)NO)cn3)CC2)c2cnccc21 ... > 157
O=C(NO)c1cnc(N[C@H]2CC[C@@H](NCc3ccccn3)CC2)nc1 ... > 72
O=C(NO)c1cnc(N[C@H]2CC[C@@H](NCc3ccoc3)CC2)nc1 ... > 91

Request: Bench note: what selectivity ratio did `O=C(NO)c1cnc(N[C@H]2CC[C@@H](NCc3ccncc3)CC2)nc1` show?
Result: > 64

Request: Bench note: what selectivity ratio did `O=C(NO)c1cnc(N[C@H]2CC[C@@H](NCc3ccsc3)CC2)nc1` show?
Result: > 76

Request: Bench note: what selectivity ratio did `O=C(NO)c1cnc(N[C@H]2CC[C@@H](NCc3cccc4cccnc34)CC2)nc1` show?
Result: > 152

Request: Bench note: what selectivity ratio did `Cn1cc(CN[C@H]2CC[C@@H](Nc3ncc(C(=O)NO)cn3)CC2)c2ccncc21` show?
Result: > 192

----------
# experiment_notes: Cytotoxicity against human HepG2 cells assessed as inhibition of cell growth incubated for 72 hrs by CCK8 assay
# Type: toxicity, cell-based
The following compounds are listed with their measured IC50 at 72 h values.

O=C(NO)c1cnc(N[C@H]2CC[C@@H](NCc3ccccn3)CC2)nc1 ... > 10 µM

Request: Bench note: what IC50 at 72 h did `O=C(NO)c1cnc(N[C@H]2CC[C@@H](NCc3ccoc3)CC2)nc1` show?
Result: > 10 µM

Request: Bench note: what IC50 at 72 h did `O=C(NO)c1cnc(N[C@H]2CC[C@@H](NCc3cccc4cccnc34)CC2)nc1` show?
Result: > 10 µM

----------
# experiment_notes: Selectivity index, ratio of IC50 for HEK293T cells to IC50 for erythrocytic stage of Plasmodium falciparum 3D7
# Type: toxicity, cell-based
# condition_info: human, read-out: Ratio IC50
The following compounds are listed with their measured selectivity ratio values.

Observe how each entry below is paired with its result.
COc1ccc2c(CN[C@H]3CC[C@@H](Nc4ncc(C(=O)NO)cn4)CC3)cn(C)c2c1.Cl ... > 867
O=C(NO)c1cnc(N[C@H]2CC[C@@H](NCc3ccsc3)CC2)nc1 ... > 76
Cn1cc(CN[C@H]2CC[C@@H](Nc3ncc(C(=O)NO)cn3)CC2)c2ccncc21 ... > 192

Request: Bench note: what selectivity ratio did `O=C(NO)c1cnc(N[C@H]2CC[C@@H](NCc3ccoc3)CC2)nc1` show?
Result: > 91
